biological target: T1, Human PD-1 expressed on CHO-K1 cells (CHO-K1/hPD-1) (human, UniProt Q15116 25-288); assay: FACS, CHO-K1/hPD-1 cells
T1 construct: whole, on cells; also called CHO-K1 cells overexpressing human PD-1
T1 sequence (Q15116 25-288): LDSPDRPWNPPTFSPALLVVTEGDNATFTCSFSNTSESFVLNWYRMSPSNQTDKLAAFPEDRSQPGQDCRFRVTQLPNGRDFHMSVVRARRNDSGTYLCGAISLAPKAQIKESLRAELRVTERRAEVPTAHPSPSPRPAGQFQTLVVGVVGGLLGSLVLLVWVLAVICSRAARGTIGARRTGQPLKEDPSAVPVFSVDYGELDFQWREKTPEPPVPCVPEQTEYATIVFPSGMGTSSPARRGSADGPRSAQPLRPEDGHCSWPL
Recorded endpoint: MFI Maximum
Write no unit; give the number alone.

Entry PR000674 (antibody, human IgG4 S228P, kappa, V domains shown, Fully human recombinant H2L2 antibody, human IgG4, kappa light chain; also called 4004_12H9C1) VH: QVQLVESGGGVVQPGKSLRLSCTVSGLTFSDNGMHWVRQAPGRGLEWMSVIWYDGSKKYYADSVKGRFTISRDNSKNTLYLQMNNMRVEDTAVYYCATNSDYWGQGTLVTVSS VL: EIVLTQSPATLSLSPGERATLSCRASQSVSSYLAWYQQKPGQAPRLLIYDTSKRATGIPARFSGSGSGTDFTLTISSLEPEDFAVYYCQQHNNWIFTFGPGTKVDIKR , MFI Maximum reported as 2.35e+06

Next binder, please.
Entry PR002473 (antibody, human IgG1, V domains shown, Heavy-chain-only antibody (HCAb), human IgG1 Fc; two heavy chains, no light chain; also called R4004P541H11) VH: EVQLVETGGGLIQPGGSLRLSCAASGFNVSSHYMSWVRQAPGKGLEWVSIIHSGGSTYYADSVKGRFTISRDNSKNRLYLQMNSLIAEDTAVYYCARAIAVAEKNGYNYPFNYWGQGTLVTVSS , MFI Maximum reported as 1.04e+06

# credit: patent US20240034792A1
